tested on: 134 cancer cell lines; test: Cell viability assay (ATPlite, 72 hours), IC50 on cancer cell line panel; details: Homo sapiens, SK-N-AS, read-out: IC50 in cell proliferation assay, cell line SK-N-AS
measured.parameter: IC50 (nM)
Give the value in nM but do not write nM after it.

Use the examples below as a reference point.
CCc1nc(C(N)=O)c(Nc2ccc(N3CCC(N4CCN(C)CC4)CC3)c(OC)c2)nc1NC1CCOCC1 [gilteritinib]
439
CC(C)(C)c1nc(-c2cccc(NS(=O)(=O)c3c(F)cccc3F)c2F)c(-c2ccnc(N)n2)s1 [dabrafenib]
3020
CC(=O)Nc1cccc(-n2c(=O)n(C3CC3)c(=O)c3c(Nc4ccc(I)cc4F)n(C)c(=O)c(C)c32)c1 [trametinib]
4
O=C(c1ccc(F)c(F)c1Nc1ccc(I)cc1F)N1CC(O)([C@@H]2CCCCN2)C1 [cobimetinib]
12
CO[C@]1(C(=O)N[C@@H](C)c2ccc(-n3cc(F)cn3)nc2)CC[C@H](c2nc(C)cc(Nc3cc(C)[nH]n3)n2)CC1 [pralsetinib]
4650

--- query ---
# query: IC50 of entry COc1cc2ncnc(Nc3ccc(F)c(Cl)c3)c2cc1NC(=O)/C=C/CN1CCCCC1 [dacomitinib] 3080

* * *

Each entry below carries its recorded inhibition at 1 µM.
molecular target: panel of 255 wild-type kinases (Homo sapiens, UniProt Q9Y6M4); test: Kinase panel profiling at 1 µmol/L (MSA or IMAP), percentage inhibition; format: biochemical; conditions: kinase CK1γ3; 1 µmol/L single concentration; read-out: %-inhibition at 1 µmol/L, CK1γ3
Sequence (Q9Y6M4 whole entry): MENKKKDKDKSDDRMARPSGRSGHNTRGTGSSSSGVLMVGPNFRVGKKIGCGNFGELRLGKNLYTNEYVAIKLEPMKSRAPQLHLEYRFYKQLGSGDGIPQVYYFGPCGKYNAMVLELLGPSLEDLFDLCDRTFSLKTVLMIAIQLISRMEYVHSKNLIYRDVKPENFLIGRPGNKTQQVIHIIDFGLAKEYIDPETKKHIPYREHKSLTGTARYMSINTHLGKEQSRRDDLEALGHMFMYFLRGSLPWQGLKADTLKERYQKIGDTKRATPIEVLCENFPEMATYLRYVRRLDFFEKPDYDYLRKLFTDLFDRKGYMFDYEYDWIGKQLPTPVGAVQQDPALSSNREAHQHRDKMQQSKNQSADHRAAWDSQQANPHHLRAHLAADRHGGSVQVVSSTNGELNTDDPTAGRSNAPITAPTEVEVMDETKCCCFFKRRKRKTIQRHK
Give the value in % but do not write % after it.

CO[C@]1(C(=O)N[C@@H](C)c2ccc(-n3cc(F)cn3)nc2)CC[C@H](c2nc(C)cc(Nc3cc(C)[nH]n3)n2)CC1 [pralsetinib]
0.449

GET /values?readout=inhibition at 1 µM&system=panel of 255 wild-type kinases (Homo sapiens, UniProt Q9Y6M4)&item= COc1ccc(CN2C3CC2CN(c2ccc(-c4cc(OCC(C)(C)O)cn5ncc(C#N)c45)cn2)C3)cn1 [selpercatinib] 12

GET /values?readout=inhibition at 1 µM&system=panel of 255 wild-type kinases (Homo sapiens, UniProt Q9Y6M4)&item= FC(F)(F)c1ccc(CNc2ccc(Cc3c[nH]c4ncc(Cl)cc34)cn2)cn1 [pexidartinib] -0.557

GET /values?readout=inhibition at 1 µM&system=panel of 255 wild-type kinases (Homo sapiens, UniProt Q9Y6M4)&item= O=C(Nc1cnn2ccc(N3CCC[C@@H]3c3cc(F)ccc3F)nc12)N1CC[C@H](O)C1 [larotrectinib] -0.832

* * *

target: UniProt P12931; test: Kinase panel profiling at 1 µmol/L (MSA or IMAP), percentage inhibition; type: biochemical; conditions: kinase SRC; 1 µmol/L single concentration; read-out: %-inhibition at 1 µmol/L, SRC
Sequence (P12931 whole entry): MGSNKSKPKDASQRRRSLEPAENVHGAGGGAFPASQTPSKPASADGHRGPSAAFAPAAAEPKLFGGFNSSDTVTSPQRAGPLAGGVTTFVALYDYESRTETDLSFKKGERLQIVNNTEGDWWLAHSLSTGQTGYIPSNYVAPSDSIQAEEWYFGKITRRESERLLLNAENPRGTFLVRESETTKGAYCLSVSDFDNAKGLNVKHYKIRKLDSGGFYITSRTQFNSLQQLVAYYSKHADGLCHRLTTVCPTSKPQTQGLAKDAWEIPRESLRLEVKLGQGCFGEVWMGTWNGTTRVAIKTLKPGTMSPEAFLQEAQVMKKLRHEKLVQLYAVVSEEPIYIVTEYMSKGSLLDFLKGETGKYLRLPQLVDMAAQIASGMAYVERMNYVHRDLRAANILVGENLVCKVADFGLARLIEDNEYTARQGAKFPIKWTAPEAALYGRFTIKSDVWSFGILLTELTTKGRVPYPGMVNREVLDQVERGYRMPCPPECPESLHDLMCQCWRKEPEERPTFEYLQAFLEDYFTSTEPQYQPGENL
Each entry below carries its recorded inhibition at 1 µM.
Give the value in % but do not write % after it.

Use the examples below as a reference point.
FC(F)(F)c1ccc(CNc2ccc(Cc3c[nH]c4ncc(Cl)cc34)cn2)cn1 [pexidartinib]
0.371
Cc1cc(Nc2ncnc3ccc(NC4=NC(C)(C)CO4)cc23)ccc1Oc1ccn2ncnc2c1 [tucatinib]
-2
CCn1c(=O)c(-c2cc(NC(=O)Nc3ccccc3)c(F)cc2Br)cc2cnc(NC)cc21 [ripretinib]
71
O=C(Nc1cnn2ccc(N3CCC[C@@H]3c3cc(F)ccc3F)nc12)N1CC[C@H](O)C1 [larotrectinib]
-4.39
Cn1cnc2c(F)c(Nc3ccc(Br)cc3F)c(C(=O)NOCCO)cc21 [binimetinib]
-0.525
C[C@H]1Oc2cc(cnc2N)-c2c(nn(C)c2C#N)CN(C)C(=O)c2ccc(F)cc21 [lorlatinib]
28
CCN1C(=O)N(c2c(F)c(OC)cc(OC)c2F)Cc2cnc3[nH]c(CN4CCOCC4)cc3c21 [pemigatinib]
2.67
CCN1CCN(c2ccc(Nc3cc(N(C)C(=O)Nc4c(Cl)c(OC)cc(OC)c4Cl)ncn3)cc2)CC1 [infigratinib]
37
C[C@H](Nc1ncnc2nc[nH]c12)c1cc2cccc(Cl)c2c(=O)n1-c1ccccc1 [duvelisib]
-1.74
Cn1cc(-c2cc3c(N4CCN(c5ncc([C@@](C)(N)c6ccc(F)cc6)cn5)CC4)ncnn3c2)cn1 [avapritinib]
66

# query: inhibition at 1 µM of entry CCc1nc(C(N)=O)c(Nc2ccc(N3CCC(N4CCN(C)CC4)CC3)c(OC)c2)nc1NC1CCOCC1 [gilteritinib] 89

# query: inhibition at 1 µM of entry CN1CCN(c2ccc(C(=O)Nc3n[nH]c4ccc(Cc5cc(F)cc(F)c5)cc34)c(NC3CCOCC3)c2)CC1 [entrectinib] 95

# query: inhibition at 1 µM of entry CO[C@]1(C(=O)N[C@@H](C)c2ccc(-n3cc(F)cn3)nc2)CC[C@H](c2nc(C)cc(Nc3cc(C)[nH]n3)n2)CC1 [pralsetinib] 94
